Tested on: MDA-MB-231 breast
Test: NCI tumour cell line growth inhibition, 48 h
quantity: TGI

Worked examples follow.
compound	TGI
Oc1ccc(Cc2ccccc2)c2cccnc12	27.4 µM
CC(=O)[CH-]C(C)=O.CC(=O)[CH-]C(C)=O.N=CC=N.[Sn+2]	9.87 µM
CC/C=C\C/C=C\C/C=C\CCCCCCCC(=O)OC(COC(=O)CCCCCCCCCCCCCCCCC)COC1OC(CO)C(O)C(O)C1O (stereo not drawn)	> 25 µM

Return reported TGI values for all items listed beneath this line.
1. CCc1cc(=O)n(/C(C)=C/c2ccccc2)n1C
2. COc1ccc(/C=N/Nc2nc3ccccc3c(=O)n2-c2ccccc2)c(OCc2ccccc2)c1
3. Cc1ncc([N+](=O)[O-])n1CCNC(=O)CCCCn1ccnc1[N+](=O)[O-]
4. O=C(N/N=C/c1ccc(Cl)cc1Cl)c1ccccc1Nc1cccc(C(F)(F)F)c1
5. COc1ccc2c(-c3cc4ccccc4o3)cc(=O)oc2c1
6. CCN(C(=O)N[C@H](C(=O)N[C@@H](C)C(=O)OC)C(C)C)c1ccccc1
7. COc1ccccc1C(=O)c1ccc2ccccc2c1
8. Cc1cccc(NC(Nc2cccc(C)c2)=C(C(Cl)=C(Cl)Cl)[N+](=O)[O-])c1

## Result
> 100 µM
> 100 µM
> 100 µM
32.2 µM
> 100 µM
> 100 µM
> 100 µM
17 µM

Could I get TGI for every one of these entries?
1. CCOC1NC(=O)c2ccccc21 (stereo not drawn)
2. Nc1n[nH]c2ccccc12

## Result
> 100 µM
> 100 µM

// each compound listed below needs its TGI
1. COC(=O)NC/C=C\c1nc(CC/C=C\C(=O)OC2CC3CC(=O)O[C@@H](/C=C/CC(C)C)C[C@@H]4CCC(C)C(C[C@@H](OC)CC(C2)O3)O4)co1 (stereo partly drawn)
2. Cc1ccc(-c2nc(C(Cl)Cl)n3nc(-c4ccccc4)cc3n2)cc1
3. O=C(O)c1cc2ccccc2c(S(=O)(=O)O)c1O
4. Nc1nc(Nc2ccc(OCc3cccc(F)c3)cc2)c2c(n1)[nH]c1ccc(O)cc12
5. COc1ccc(/C(C)=N/NC(=S)N(C)C)c(O)c1

## Result
1. 47.6 µM
2. 0.678 µM
3. > 100 µM
4. 7.33 µM
5. > 100 µM

Hey, quick one: what's TGI for each of these?
1. CC(C)(C)OC(=O)c1ccc(NCc2cc(O)ccc2O)cc1
2. Cc1cn(C2CC(OC(c3ccccc3)(c3ccccc3)c3ccccc3)C(COC(c3ccccc3)(c3ccccc3)c3ccccc3)O2)c(=O)[nH]c1=O (stereo not drawn)
3. CCCSc1cc(Cl)nc(N)n1
4. COc1cc2nc(-c3c(F)cccc3F)n(Cc3c(F)cccc3F)c2cc1Cc1c(F)cccc1F
5. C=C(C)[C@@H]1CC[C@@]2(C(=O)O)CC[C@]3(C)C(CCC4[C@@]5(C)CCC(OS(=O)(=O)c6ccccc6)C(C)(C)C5CC[C@]43C)C12 (stereo partly drawn)

## Result
["9.31 µM", "> 100 µM", "> 100 µM", "> 100 µM", "25.6 µM"]
